Target: Kir3.1/Kir3.4 (Homo sapiens, UniProt P48544+P48549)
Sequence (P48549 whole entry): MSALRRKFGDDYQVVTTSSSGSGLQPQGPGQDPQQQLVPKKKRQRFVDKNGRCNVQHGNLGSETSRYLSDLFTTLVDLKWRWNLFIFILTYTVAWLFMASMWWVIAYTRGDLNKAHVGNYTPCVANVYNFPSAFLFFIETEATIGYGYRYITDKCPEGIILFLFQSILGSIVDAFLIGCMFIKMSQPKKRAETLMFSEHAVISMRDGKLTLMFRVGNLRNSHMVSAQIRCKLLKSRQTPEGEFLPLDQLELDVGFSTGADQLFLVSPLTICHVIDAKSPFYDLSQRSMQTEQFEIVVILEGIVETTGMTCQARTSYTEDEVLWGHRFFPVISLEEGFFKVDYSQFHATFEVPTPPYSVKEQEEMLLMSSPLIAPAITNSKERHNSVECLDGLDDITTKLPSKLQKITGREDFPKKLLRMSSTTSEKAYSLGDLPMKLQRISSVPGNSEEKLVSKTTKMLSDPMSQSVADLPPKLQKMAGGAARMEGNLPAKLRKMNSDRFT
Sequence (P48544 whole entry): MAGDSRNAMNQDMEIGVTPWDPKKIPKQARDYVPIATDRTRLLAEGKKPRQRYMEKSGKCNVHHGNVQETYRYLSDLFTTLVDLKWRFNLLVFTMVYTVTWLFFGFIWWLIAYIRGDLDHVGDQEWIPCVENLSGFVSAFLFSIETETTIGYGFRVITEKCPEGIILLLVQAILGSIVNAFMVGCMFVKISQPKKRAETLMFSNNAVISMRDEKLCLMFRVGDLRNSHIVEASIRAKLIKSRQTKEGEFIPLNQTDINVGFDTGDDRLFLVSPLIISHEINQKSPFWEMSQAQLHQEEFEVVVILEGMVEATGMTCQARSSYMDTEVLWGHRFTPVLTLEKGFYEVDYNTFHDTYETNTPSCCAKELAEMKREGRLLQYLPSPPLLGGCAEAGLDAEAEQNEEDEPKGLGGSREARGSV
Experiment: Activation of GIRK1/4 (unknown origin)
measurement.kind: EC50 (nM)

stdin: Write down the reported EC50 of Cc1cc(NC(=O)Nc2ccccc2)n(-c2ccccc2)n1 , test system: Kir3.1/Kir3.4 (Homo sapiens, UniProt P48544+P48549).
stdout: 690

stdin: // repeat for Cc1cc(NC(=O)Nc2ccc(F)c(F)c2)n(-c2ccc(F)cc2)n1 and report
stdout: 540

stdin: // repeat for Cc1cc(NC(=O)Nc2ccc(F)c(F)c2)n(-c2ccccc2)n1 and report
stdout: 1800

stdin: // repeat for Cc1ccc(NC(=O)Nc2cc(C3CC3)nn2Cc2ccccc2)cc1 and report
stdout: 920

stdin: // repeat for O=C(Nc1ccc(F)cc1)Nc1cc(C2CC2)nn1Cc1ccccc1 and report
stdout: 570

stdin: // repeat for Cc1cc(NC(=O)Nc2ccc(F)c(F)c2)n(CC(F)(F)F)n1 and report
stdout: 1300

stdin: // repeat for O=C(Nc1cccc(C(F)(F)F)c1)Nc1cc(C2CC2)nn1Cc1ccccc1 and report
stdout: 650

stdin: // repeat for O=C(Nc1cccc(Br)c1)Nc1cc(C2CC2)nn1Cc1ccccc1 and report
stdout: 790

stdin: // repeat for O=C(Nc1cccc(F)c1)Nc1cc(C2CC2)nn1Cc1ccccc1 and report
stdout: 780

[I] CC(C)c1cc(NC(=O)Nc2cccc(Cl)c2)n(Cc2ccccc2)n1
[II] O=C(Nc1cccc(Cl)c1)Nc1cc(C2CC2)nn1-c1ccccc1
[III] Cc1cc(NC(=O)Nc2ccc(F)c(F)c2)n(Cc2ccccc2)n1
[IV] CC(C)c1cc(NC(=O)Nc2cccc(C(F)(F)F)c2)n(Cc2ccccc2)n1
[V] O=C(Nc1ccc(F)c(Cl)c1)Nc1cc(C2CC2)nn1Cc1ccccc1
stdin: # rank by EC50, ascending (min first) // list labels; follow requested order
stdout: III, V, II, I, IV
